- Assay Details: Solubility estimates in test solvents (aliquot addition, visual inspection)
- Format: physicochemical
- Condition Info: organic solvent or mixture, thermodynamic from solid; solvent THF; room temperature; approximate; read-out: Solubility
Endpoint Label: solubility

Exercise: Fill in the blank: the reported solubility of Cn1c(=O)cc(N2CCC[C@@H](N)C2)n(Cc2ccccc2C#N)c1=O [Form A] is ____.
Key: < 1000 µg/mL

###

- Assay Details: Solubility estimates in test solvents (aliquot addition, visual inspection)
- Format: physicochemical
- Condition Info: organic solvent or mixture, thermodynamic from solid; solvent acetone; room temperature; approximate; read-out: Solubility
- Procedure: A weighed sample of Compound I was treated with aliquots of the test solvent at room temperature. The mixture was sonicated between aliquot additions to facilitate dissolution. Complete dissolution of the test material was determined by visual inspection. […] The actual solubility may be greater than those calculated because of the use of solvent aliquots that were too large or due to a slow rate of dissolution. […]
Endpoint Label: solubility

Exercise: Fill in the blank: the reported solubility of Cn1c(=O)cc(N2CCC[C@@H](N)C2)n(Cc2ccccc2C#N)c1=O [Form A] is ____.
Key: < 3000 µg/mL

###

- Assay Details: Solubility estimates in test solvents (aliquot addition, visual inspection)
- Type: physicochemical
- Condition Info: organic solvent or mixture, thermodynamic from solid; solvent MIBK; room temperature; approximate; read-out: Solubility
Endpoint Label: solubility

Exercise: Fill in the blank: the reported solubility of Cn1c(=O)cc(N2CCC[C@@H](N)C2)n(Cc2ccccc2C#N)c1=O [Form A] is ____.
Key: < 3000 µg/mL

###

- Assay Details: Solubility estimates in test solvents (aliquot addition, visual inspection)
- Format: physicochemical
- Condition Info: thermodynamic from solid; solvent water; room temperature; approximate; read-out: Solubility
Endpoint Label: solubility (µg/mL)
Return type: number; implicit unit µg/mL.

Exercise: Fill in the blank: the reported solubility of Cn1c(=O)cc(N2CCC[C@@H](N)C2)n(Cc2ccccc2C#N)c1=O [Form A] is ____.
Key: 8000
